System: OVCAR-4
assayOverview: NCI tumour cell line growth inhibition, 48 h
Calls of active or inactive are those of the source. Cut-off read from the data, not from the text of the source: active = GI50 up to about 1.1 µM and inactive = higher.

| compound | GI50 |
| --- | --- |
| N#CCCn1[nH]c(=O)c(Cl)c(Cl)c1=O | 18 µM (inactive) |
| CC12CC(Br)(Br)C(=O)C3C1CCCC32 | 4.48 µM (inactive) |
| COc1cc2c(cc1O)C1Cc3ccc(OC)c(O)c3C[N+]1(C)CC2 (stereo not given) | > 100 µM (inactive) |
| O=C1C=C(c2[nH]c3ccccc3c2C2=CC(=O)c3ccccc3C2=O)C(=O)c2ccccc21 | 33.7 µM (inactive) |
| COc1ccc(/C=C2\N=C(c3ccccc3)N(NC3=NC(=O)CC(=O)N3)C2=O)cc1 | > 100 µM (inactive) |
| O=C1CC=C2C3CC4N(CCC45c4ccccc4N1C25)C/C3=C\CO (stereo not given) | > 100 µM (inactive) |
| Cc1ccc(Nc2[nH]c(=O)[nH]c(=O)c2C)cc1Cl | > 100 µM (inactive) |
| O/N=C(/CC(O)(C(F)(F)F)C(F)(F)F)c1ccccc1 | > 10 µM (inactive) |
| O=C1C(=CNc2ccccc2Cl)C(=O)N(c2ccccc2)C(=O)N1c1ccccc1 | > 100 µM (inactive) |
| Cc1cc(Cl)ccc1NC(=O)C1C(=O)N(c2ccc(Cl)cc2C)C(=O)/C1=N\NC(N)=S (stereo not given) | 18.5 µM (inactive) |

---

As shown below, each of these compounds has a reported GI50 value.
Tested on: 786-0
assayOverview: NCI tumour cell line growth inhibition, 48 h
Active and inactive are the calls of the source. No stated cut-off is given here; in the data, active = GI50 up to about 1.1 µM and inactive = higher. Peptide text beside a SMILES is read from it. * marks the point of attachment. Boc = CC(C)(C)OC(=O)*

| compound | GI50 |
| --- | --- |
| N#C/C(=C1\OC(=N)C(c2ccc(Cl)cc2Cl)C1=O)c1ccc(Cl)cc1Cl (stereo not given) | > 100 µM (inactive) |
| CC(NC(=O)OC(C)(C)C)C(=O)NC(Cc1ccccc1)C(=O)NCC(=O)O (stereo not drawn) (Boc-Ala-Phe-Gly-OH; configuration not given here) | > 100 µM (inactive) |
| CCOC(=O)c1sc2c(c1OC(=O)c1ccccc1)c(=O)n(-c1ccccc1)c(=S)n2-c1ccccc1 | 15.9 µM (inactive) |
| O=C1Nc2c(ccc(Cl)c2I)C1=O | 15 µM (inactive) |
| CC1=Nc2ccccc2/C1=C\c1c(C)[nH]c2ccccc12 | 12 µM (inactive) |
| c1ccc(CN2CCCCC(Sc3ccccc3)CC2)cc1 (stereo not given) | 16.8 µM (inactive) |
| CC(=O)Nc1ccc(NC(=O)CC(=O)Nc2ccc(NC(C)=O)cc2)cc1 | > 100 µM (inactive) |
| O=C(NC(CCCCN1C(=O)c2ccccc2C1=O)P(=O)(Oc1ccccc1)Oc1ccccc1)OCc1ccccc1 (stereo not given) | > 100 µM (inactive) |
| CCC1CC(C)C(O)/C=C/C=C/CC(C)OC(=O)CC(O)C(OC)C1OC1OC(C)CC(O)(C(C)=O)C1O (stereo not given) | > 100 µM (inactive) |
| C#CCOC(=O)C(N)CC(N)=O (stereo not given) | > 100 µM (inactive) |
| COc1cc(C=C2C(=O)OC(C)(C)OC2=O)cc(OC)c1OC | > 100 µM (inactive) |
| N#CC1CCCCCCCCCCC(=O)N(CCCl)C1=O (stereo not given) | > 100 µM (inactive) |
| C[C@H](CCC(=O)O)[C@H]1CC[C@H]2[C@@H]3[C@@H](O)C[C@@H]4C[C@H](O)CC[C@]4(C)[C@H]3CC[C@]12C | > 100 µM (inactive) |
| Cc1cc2c3c(nc4ccccc42)C(=O)c2ccccc2-c3n1 | 25.5 µM (inactive) |
| CC(C)(C)OC(=O)NC(CCCCNC(=O)OCc1ccccc1)C(=O)NC(CCCCNC(=O)OCc1ccccc1)C(=O)ON1C(=O)CCC1=O (stereo not given) | > 100 µM (inactive) |
| Cc1c(C(=N)N)oc2ccccc12 | > 100 µM (inactive) |
| N#CCc1c(F)c(F)c(F)c(F)c1F | > 100 µM (inactive) |
| O=[N+]([O-])c1cccnc1NCC1(CO)CCCC1 | 26.7 µM (inactive) |
| c1ccc2cc(CN3CCC(C4CCN(Cc5ccc6ccccc6c5)CC4)CC3)ccc2c1 | 2.45 µM (inactive) |
| COC(=O)c1ccccc1C1=C([N+](=O)[O-])C(c2cccc(Br)c2)C(C#N)=C(N)O1 (stereo not given) | 25.6 µM (inactive) |

---

Test system: HOP-92
assayOverview: NCI tumour cell line growth inhibition, 48 h
Activity calls are given as the source filed them. Cut-off read from the data, not from the text of the source: active = GI50 up to about 1.1 µM and inactive = higher.

| molecule | GI50 |
| --- | --- |
| CC12CC(Br)(Br)C(=O)C3C1CCCC32 | 2.17 µM (inactive) |
| Cc1ccc(-c2cc(=O)c3cc(C)c(C)c(C(=O)O)c3o2)cc1 | > 100 µM (inactive) |
| CCC1CC(C)C(O)/C=C/C=C/CC(C)OC(=O)CC(O)C(OC)C1OC1OC(C)CC(O)(C(C)=O)C1O (centres undefined) | > 100 µM (inactive) |
| c1cncc(C2c3[nH]c4ccccc4c3CCN2CCN2CCCCC2)c1 (centres undefined) | 30 µM (inactive) |
| N#CC(C(=O)/C(=N/N)C(C#N)c1ccccc1)c1ccccc1 (centres undefined) | > 100 µM (inactive) |
| OCC(O)COCn1cc(Cn2ncc3c(NCc4ccccc4)ncnc32)nn1 (centres undefined) | > 100 µM (inactive) |
| COC1C(OC(=O)c2ccc(C)[nH]2)C(O)C(Oc2ccc3c(O)c(NC(=O)c4c[nH]c(C(=O)Nc5c(O)c6ccc(OC7OC(C)(C)C(OC)C(OC(=O)c8ccc(C)[nH]8)C7O)c(C)c6oc5=O)c4C)c(=O)oc3c2C)OC1(C)C (centres undefined) | 2.44 µM (inactive) |
| O=C1c2cccc3cc4ccccc4c(c23)C(=O)N1CCCNCCNCCCN1C(=O)c2cccc3cc4ccccc4c(c23)C1=O | 1 µM (active) |
| CC(=O)OCC1OC(n2c(C)c(C(C)=O)c(-c3cccc4ccccc34)c(C#N)c2=S)C(OC(C)=O)C(OC(C)=O)C1OC(C)=O (centres undefined) | 17.5 µM (inactive) |
| O=c1[nH][nH]c(=O)[nH]1 | > 100 µM (inactive) |
| O=C1c2ccccc2-n2c1nc1ccccc1c2=O [TRYPTANTHRIN] | 44.5 µM (inactive) |
| CSc1c(CC(=O)Nc2ccc(Cl)cc2)n(Cc2ccccc2)c2ccccc12 | 13.7 µM (inactive) |
| CCOC(=O)c1[nH]c(Br)c(-c2ccc(OC)c(OC)c2)c1Br | 7.46 µM (inactive) |
| CC(Cc1ccc(O)cc1)NCC(O)c1ccc(O)c(O)c1 (centres undefined) | > 100 µM (inactive) |
| N=C1NC2(O)C(=O)c3ccccc3C2(O)N1 (centres undefined) | > 100 µM (inactive) |
| CN1CCN(Cn2nc(-c3ccccc3)n(/N=C/c3ccc(-c4ccc(Cl)cc4Cl)o3)c2=S)CC1 | 8.95 µM (inactive) |
| CSc1n[nH]c2[nH]nc(C)c12 | > 100 µM (inactive) |
| CCN1C[C@]2(C)CC[C@H](OC)C34C1C([C@H](OC(C)=O)[C@@H]32)[C@@]1(OC)C[C@H](OC)[C@H]2C[C@@H]4[C@@H]1[C@H]2O | > 100 µM (inactive) |
| COc1ccc(/N=C(\C)c2ccncc2)cc1 | > 100 µM (inactive) |

---

Test system: ACHN
assayOverview: NCI tumour cell line growth inhibition, 48 h
The source made the active and inactive calls. No stated cut-off is given here; in the data, active = GI50 up to about 1.1 µM and inactive = higher.
Labels: true (active), false (inactive)

| molecule | targetOrTestSystem | classification |
| --- | --- | --- |
| O=c1[nH]nc(Cc2ccc(Cl)cc2)n1/N=C/c1ccc([N+](=O)[O-])o1 | ACHN | false |
| COc1ccc(C(=O)/C=C/c2ccc(OCC(=O)N3CCN(c4ccccc4)CC3)cc2)cc1 | ACHN | false |
| COc1cc(/C=C2\C(=O)N(c3cccc(NC(C)=O)c3)C(c3ccccc3)S2(=O)=O)cc(OC)c1OC (stereo not given) | ACHN | false |
| O=C(c1nc2ccc(Cl)cc2[nH]c1=O)C(O)c1cccc([N+](=O)[O-])c1 (stereo not given) | ACHN | false |
| COc1cc(OCc2nc3ccccc3n3cccc23)cc(OC)c1OC | ACHN | false |
| COc1ccc(N2C(=O)CC(c3c[nH]c4ncccc34)C2=O)cc1 (stereo not given) | ACHN | false |
| CC(=O)OC1CC2(C)OC(Cc3ccccc32)O1 (stereo not given) | ACHN | false |
| O=c1ssc2ncccc12 | ACHN | false |
| CCOC(=O)/C=C\c1c(Cl)n(-c2ccccc2)c(=O)n(-c2ccccc2)c1=O | ACHN | false |
| O=C1c2ccccc2C(=O)N1n1c(Cc2ccc(Cl)cc2)n[nH]c1=O | ACHN | false |
| C=CCOc1cc(NC(=S)c2ccoc2C)ccc1OC | ACHN | false |
| COC(=O)c1ccccc1C1=C([N+](=O)[O-])C(c2cccc(Br)c2)C(C#N)=C(N)O1 (stereo not given) | ACHN | false |
| c1ccc2c(c1)CCc1cc3cc4c(nc3nc1-2)-c1ccccc1CC4 | ACHN | false |
| O=C1C[C@H](Sc2ccccc2)C2(OCCO2)[C@@H](Sc2ccccc2)C1 | ACHN | false |
| CSc1c(CC(=O)Nc2ccc(Cl)cc2)n(Cc2ccccc2)c2ccccc12 | ACHN | false |
| N#CCCN(CCC#N)c1ccc(/C=C2\N=C(c3ccccc3)N(NC(=O)c3ccncc3)C2=O)cc1 | ACHN | false |
| O=C1c2ccccc2-c2c1c1ccccc1c(=O)n2-c1cccnc1 | ACHN | false |
| OCC(O)COCn1cc(Cn2ncc3c(NCc4ccccc4)ncnc32)nn1 (stereo not given) | ACHN | false |
| COc1cc2c(cc1O)C1Cc3ccc(OC)c(O)c3C[N+]1(C)CC2 (stereo not given) | ACHN | false |
| CCOC(=O)c1nc2cc(C(F)(F)F)ccc2nc1Nc1ccc(OC)cc1 | ACHN | false |
| CCN(CC)c1ccc(C2NC(=O)c3ccccc3N2)cc1 (stereo not given) | ACHN | false |
| C=CCNC(=S)NNC(=O)c1c(C)nc2sccn12 | ACHN | false |
| C/C(=N\C1CCCCC1)c1ccccc1O | ACHN | false |
| CCC(=O)CC(=O)CCC(=O)Nc1cc(C)ccc1C | ACHN | false |
| C/C(=C\c1ccc(Cl)c(Cl)c1)[N+](=O)[O-] | ACHN | false |
| COc1cc(CC2C(=O)OCC2Cc2ccc(OC)c(OC)c2)ccc1O (stereo not given) | ACHN | false |
| O=C1c2ccccc2C(=O)N1/N=C1/SC(=N\c2ccccc2)/C(=N/c2ccccc2)N1c1ccccc1 | ACHN | false |
| CCOC(=O)/C(=C/c1cccc(C#N)c1)N(CC)CC | ACHN | false |
| OCCCC(O)(c1ccccc1)c1ccccc1 | ACHN | false |
| COc1cc(CNc2nc3cc(C(F)(F)F)ccc3nc2C)cc(OC)c1OC | ACHN | false |
| CC1=Nc2ccccc2S(=O)(=O)N1 | ACHN | false |
| O=C1C(=CNc2ccccc2Cl)C(=O)N(c2ccccc2)C(=O)N1c1ccccc1 | ACHN | false |
| N#Cc1c(C#N)c(-c2ccccc2)n(-c2ccccc2)c1N | ACHN | false |
| c1ccc2c(c1)CCCC/C2=N/OCC1CO1 (stereo not given) | ACHN | false |
| CCCC#CCOC(=O)c1cc([N+](=O)[O-])cc([N+](=O)[O-])c1 | ACHN | false |
| c1ccc2cc(C3NCCc4nc[nH]c43)ccc2c1 (stereo not given) | ACHN | false |
| O=C(c1cccs1)N(C(=S)N1CCN(c2ccccn2)CC1)c1ccccc1 | ACHN | false |
| O=C(O)C1=Cc2cccc3cccc(c23)C1=O | ACHN | false |
| C/C(=C\c1csc(C)n1)[C@@H]1C[C@@H]2O[C@]2(C)CCC[C@H](C)[C@H](O)[C@@H](C)C(=O)C(C)(C)[C@@H](O)CC(=O)O1 | ACHN | true |
| Nc1ncc(Sc2ccccc2C(=O)O)s1 | ACHN | false |
| C/C=C/C#CC#C/C=C/C=C/C(O)CCO (stereo not given) | ACHN | false |
| O=C(c1cccs1)N(C(=O)N1CCN(c2ccccc2)CC1)S(=O)(=O)c1ccccc1 | ACHN | false |
| Cc1cc2cc3c(C)cc(=O)oc3c(C)c2o1 | ACHN | false |
| Fc1cc2nc3n(c2cc1F)C(c1c(Cl)cccc1Cl)SC3 (stereo not given) | ACHN | false |
| OCCC/N=C1N=C(Cl)/C(=C\c2ccccc2)N\1 | ACHN | false |

The measured values listed here are drawn from ChEMBL document CHEMBL1201862.
